Species on record: Homo sapiens
Experiment Summary: Selectivity ratio of IC50 for human recombinant MAO-A to IC50 for human recombinant MAO-B
Quantity Name: Ratio IC50

Worked examples follow.
>>> print(df.to_string())
                                 structure  measured
0       CCCCCCOc1ccc2cc(C(=O)OC)c(=O)oc2c1        75
1      C#CCNCCOc1ccc2cc(C(=O)OC)c(=O)oc2c1         7
2               C#CCCCCOc1ccc2ccc(=O)oc2c1       140
3       C#CCCCOc1ccc2cc(C(=O)OC)c(=O)oc2c1        12
4  CC(=O)Nc1cc2ccc(OCc3cccc(Cl)c3)cc2oc1=O         5

1: COC(=O)c1cc2ccc(OCCc3ccc(Cl)cc3)cc2oc1=O
2: C#CCCOc1ccc2cc(C(=O)OC)c(=O)oc2c1
3: C#CCCCCOc1ccc2cc(C(=O)OC)c(=O)oc2c1
4: COC(=O)c1cc2ccc(OC/C=C(\C)CCC=C(C)C)cc2oc1=O
5: C#CCCCOc1ccc2cc(NC(C)=O)c(=O)oc2c1
Problem: hey, can you rank those compounds up there by Ratio IC50? biggest number first please State the ranking by listing the labels in the requested order.
Result: 4, 1, 5, 3, 2

* * *

Target Or Test System: UniProt P21397
Sequence (P21397 whole entry): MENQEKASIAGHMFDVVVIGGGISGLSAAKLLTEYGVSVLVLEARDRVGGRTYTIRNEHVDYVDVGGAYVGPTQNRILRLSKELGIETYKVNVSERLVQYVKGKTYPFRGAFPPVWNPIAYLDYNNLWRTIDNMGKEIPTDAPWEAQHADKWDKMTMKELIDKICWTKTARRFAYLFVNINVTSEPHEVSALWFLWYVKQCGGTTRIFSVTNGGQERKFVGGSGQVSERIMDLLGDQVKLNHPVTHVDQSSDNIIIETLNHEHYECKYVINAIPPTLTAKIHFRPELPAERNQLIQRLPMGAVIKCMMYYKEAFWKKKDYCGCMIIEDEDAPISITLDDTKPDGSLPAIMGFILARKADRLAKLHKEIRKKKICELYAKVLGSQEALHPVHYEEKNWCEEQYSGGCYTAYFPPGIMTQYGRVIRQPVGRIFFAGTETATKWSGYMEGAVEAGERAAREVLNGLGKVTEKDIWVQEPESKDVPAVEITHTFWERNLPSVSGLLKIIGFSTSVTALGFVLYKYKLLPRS
Experiment Summary: Inhibition of human recombinant MAO-A expressed in baculovirus infected insect cells assessed as hydrogen peroxide production using p-tyramine as substrate incubated for 30 mins prior to substrate addition measured for 45 mins by Amplex Red monoamine oxidase assay
pIC50: −log10 of the molar value.
Quantity Name: pIC50

Recorded results for 10 compounds are shown here.
In [3]: df
Out[3]:
                                  structure  target_or_test_system  measured
0         C#CCCOc1ccc2cc(C(=O)OC)c(=O)oc2c1         UniProt P21397      6.09
1       C#CCCCCOc1ccc2cc(C(=O)OC)c(=O)oc2c1         UniProt P21397      8.02
2  COC(=O)c1cc2ccc(OCCc3ccc(Cl)cc3)cc2oc1=O         UniProt P21397      7.13
3             C#CCCCCOc1ccc2c(C)cc(=O)oc2c1         UniProt P21397      7.22
4        C#CCCCOc1ccc2cc(NC(C)=O)c(=O)oc2c1         UniProt P21397      6.03
5                C#CCCCCOc1ccc2ccc(=O)oc2c1         UniProt P21397      6.44
6   CC(=O)Nc1cc2ccc(OCc3cccc(Cl)c3)cc2oc1=O         UniProt P21397      7.20
7        CCCCCCOc1ccc2cc(C(=O)OC)c(=O)oc2c1         UniProt P21397      7.18
8              C#CCCCOc1ccc2c(C)cc(=O)oc2c1         UniProt P21397      6.26
9    COC(=O)c1cc2ccc(OCc3cccc(F)c3)cc2oc1=O         UniProt P21397      7.11

P: C#CCNCCOc1ccc2ccc(=O)oc2c1
Q: C#CCCCOc1ccc2ccc(=O)oc2c1
Problem: Sort P and Q by pIC50 descending and give the first. Return value: the label identifying the chosen record.
Result: Q
(Q: 5.45, P: 5.00)

1: C#CCCCOc1ccc2cc(C(=O)OC)c(=O)oc2c1
2: COC(=O)c1cc2ccc(OC/C=C(\C)CCC=C(C)C)cc2oc1=O
3: C#CCOc1ccc2cc(C(=O)OC)c(=O)oc2c1
Problem: Arrange these compounds by their pIC50, starting with the largest number. Please list each label once, in the requested order.
Result: 1, 3, 2
(1: 6.02, 3: 5.80, 2: 5.00)

1: C#CCCCCOc1ccc2cc(NC(C)=O)c(=O)oc2c1
2: C#CCNCCOc1ccc2cc(C(=O)OC)c(=O)oc2c1
Problem: Which value of pIC50 is smaller, the one for 1 or the one for 2 ? Bench note: the answer is the label of the chosen record.
Result: 2
(2: 5.57, 1: 7.18)

* * *

Experiment Summary: Lipophilicity, log D of the compound at pH 7.4 by HPLC analysis
Format: physicochemical
Cond: buffer
Quantity Name: logD

Some entries whose results are on file:
>>> print(df.to_string())
                                  structure  quantity_name  measured
0       C#CCCCCOc1ccc2oc(=O)c(NC(C)=O)cc2c1           logD       2.4
1  C#CCCCOc1ccc2cc(C(=O)c3ccc(OC)cc3)c(=O)oc2c1           logD       3.1
2  COC(=O)c1cc2ccc(OCCc3ccc(Cl)cc3)cc2oc1=O           logD       3.9

1: CCCCCCOc1ccc2cc(C(=O)OC)c(=O)oc2c1
2: C#CCNCCOc1ccc2cc(C(=O)OC)c(=O)oc2c1
Problem: Between 1 and 2 , whose recorded logD is greater? Your answer should be the label of the entry you select.
Result: 1

* * *

Target Or Test System: Amine oxidase [flavin-containing] B (Homo sapiens, UniProt P27338)
Experiment Summary: Inhibition of human recombinant MAO-B expressed in baculovirus infected insect cells assessed as hydrogen peroxide production using p-tyramine as substrate incubated for 30 mins prior to substrate addition measured for 45 mins by Amplex Red monoamine oxidase assay
Quantity Name: IC50 (nM)

                             structure  quantity_name  measured
0  C#CCNCCOc1ccc2cc(C(=O)OC)c(=O)oc2c1           IC50       377

a: C#CCCCOc1ccc2cc(C(=O)c3ccc(OC)cc3)c(=O)oc2c1
b: C#CCCCOc1ccc2cc(C(=O)OC)c(=O)oc2c1
c: C#CCCCCOc1ccc2cc(-c3ccc(OC)cc3)c(=O)oc2c1
d: C#CCOc1ccc2cc(C(=O)OC)c(=O)oc2c1
Problem: Please list these compounds in decreasing order of IC50. List the labels, following the order given in the request.
Result: d, a, b, c

* * *

Target Or Test System: Amine oxidase [flavin-containing] B (Homo sapiens)
Sequence (P27338 whole entry): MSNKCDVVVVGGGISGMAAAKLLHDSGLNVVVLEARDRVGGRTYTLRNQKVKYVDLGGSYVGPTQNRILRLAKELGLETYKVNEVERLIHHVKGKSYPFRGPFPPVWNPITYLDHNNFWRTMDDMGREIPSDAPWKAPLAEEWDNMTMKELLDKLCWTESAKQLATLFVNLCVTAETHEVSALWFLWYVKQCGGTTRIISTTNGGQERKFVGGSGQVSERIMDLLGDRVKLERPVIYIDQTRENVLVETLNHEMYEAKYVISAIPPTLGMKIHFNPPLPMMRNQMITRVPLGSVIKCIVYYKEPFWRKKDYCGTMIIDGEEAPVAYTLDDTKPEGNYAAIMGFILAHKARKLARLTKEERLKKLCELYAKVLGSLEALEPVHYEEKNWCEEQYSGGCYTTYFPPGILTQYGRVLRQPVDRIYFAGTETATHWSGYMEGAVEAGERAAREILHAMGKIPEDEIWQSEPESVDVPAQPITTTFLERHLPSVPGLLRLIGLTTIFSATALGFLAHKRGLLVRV
Experiment Summary: Inhibition of human recombinant MAO-B expressed in baculovirus infected insect cells assessed as hydrogen peroxide production using p-tyramine as substrate incubated for 30 mins prior to substrate addition measured for 45 mins by Amplex Red monoamine oxidase assay
Quantity Name: IC50 (nM)

In [3]: df
Out[3]:
                             structure  measurement_units  measured
0   C#CCCCOc1ccc2cc(NC(C)=O)c(=O)oc2c1                 nM      43.6
1  C#CCCCCOc1ccc2oc(=O)c(NC(C)=O)cc2c1                 nM      24.7

1: C#CCCCCOc1ccc2cc(NC(C)=O)c(=O)oc2c1
2: CCCCCCOc1ccc2cc(C(=O)OC)c(=O)oc2c1
3: C#CCCCOc1ccc2c(C)cc(=O)oc2c1
4: COC(=O)c1cc2ccc(OC/C=C(\C)CCC=C(C)C)cc2oc1=O
Problem: Arrange the 4 compounds by rising IC50, starting with the smallest. Order the labels as requested and give them as your answer.
Result: 2, 3, 1, 4
(2: 0.875 nM, 3: 18.2 nM, 1: 41.7 nM, 4: 78.9 nM)

1: COC(=O)c1cc2cc(OCc3cccc(Cl)c3)ccc2oc1=O
2: CC(=O)Nc1cc2ccc(OCc3cccc(Cl)c3)cc2oc1=O
Problem: Between the entries labelled 1 and 2 , which has a larger IC50 value on record? Record your answer as the label of the chosen record.
Result: 1
(1: 31.5 nM, 2: 13.5 nM)

1: C#CCCCOc1ccc2ccc(=O)oc2c1
2: C#CCCOc1ccc2cc(C(=O)OC)c(=O)oc2c1
Problem: When the recorded IC50 values are compared, which is smaller: that of 1 or that of 2 ? Please identify the chosen entry by its label.
Result: 1
(1: 91.8 nM, 2: 258 nM)

1: COC(=O)c1cc2cc(OC/C=C(\C)CCC=C(C)C)ccc2oc1=O
2: COC(=O)c1cc2ccc(OCc3cccc(F)c3)cc2oc1=O
Problem: Recorded IC50 values differ for 1 and 2 ; which one is higher? Give the label of your selection.
Result: 1
